molecular target: HiBit-BRM fusion protein (Homo sapiens, UniProt P51531); construct: expressed in transfected cells; test: HiBiT-BRM cell-based degradation assay (Nano-Glo HiBiT Lytic Detection, 24 h); conditions: HeLa cell line expressing HiBiT-BRM, read-out: BRM HiBit Degradation IC50
Sequence (P51531 whole entry, the tested form may be a part): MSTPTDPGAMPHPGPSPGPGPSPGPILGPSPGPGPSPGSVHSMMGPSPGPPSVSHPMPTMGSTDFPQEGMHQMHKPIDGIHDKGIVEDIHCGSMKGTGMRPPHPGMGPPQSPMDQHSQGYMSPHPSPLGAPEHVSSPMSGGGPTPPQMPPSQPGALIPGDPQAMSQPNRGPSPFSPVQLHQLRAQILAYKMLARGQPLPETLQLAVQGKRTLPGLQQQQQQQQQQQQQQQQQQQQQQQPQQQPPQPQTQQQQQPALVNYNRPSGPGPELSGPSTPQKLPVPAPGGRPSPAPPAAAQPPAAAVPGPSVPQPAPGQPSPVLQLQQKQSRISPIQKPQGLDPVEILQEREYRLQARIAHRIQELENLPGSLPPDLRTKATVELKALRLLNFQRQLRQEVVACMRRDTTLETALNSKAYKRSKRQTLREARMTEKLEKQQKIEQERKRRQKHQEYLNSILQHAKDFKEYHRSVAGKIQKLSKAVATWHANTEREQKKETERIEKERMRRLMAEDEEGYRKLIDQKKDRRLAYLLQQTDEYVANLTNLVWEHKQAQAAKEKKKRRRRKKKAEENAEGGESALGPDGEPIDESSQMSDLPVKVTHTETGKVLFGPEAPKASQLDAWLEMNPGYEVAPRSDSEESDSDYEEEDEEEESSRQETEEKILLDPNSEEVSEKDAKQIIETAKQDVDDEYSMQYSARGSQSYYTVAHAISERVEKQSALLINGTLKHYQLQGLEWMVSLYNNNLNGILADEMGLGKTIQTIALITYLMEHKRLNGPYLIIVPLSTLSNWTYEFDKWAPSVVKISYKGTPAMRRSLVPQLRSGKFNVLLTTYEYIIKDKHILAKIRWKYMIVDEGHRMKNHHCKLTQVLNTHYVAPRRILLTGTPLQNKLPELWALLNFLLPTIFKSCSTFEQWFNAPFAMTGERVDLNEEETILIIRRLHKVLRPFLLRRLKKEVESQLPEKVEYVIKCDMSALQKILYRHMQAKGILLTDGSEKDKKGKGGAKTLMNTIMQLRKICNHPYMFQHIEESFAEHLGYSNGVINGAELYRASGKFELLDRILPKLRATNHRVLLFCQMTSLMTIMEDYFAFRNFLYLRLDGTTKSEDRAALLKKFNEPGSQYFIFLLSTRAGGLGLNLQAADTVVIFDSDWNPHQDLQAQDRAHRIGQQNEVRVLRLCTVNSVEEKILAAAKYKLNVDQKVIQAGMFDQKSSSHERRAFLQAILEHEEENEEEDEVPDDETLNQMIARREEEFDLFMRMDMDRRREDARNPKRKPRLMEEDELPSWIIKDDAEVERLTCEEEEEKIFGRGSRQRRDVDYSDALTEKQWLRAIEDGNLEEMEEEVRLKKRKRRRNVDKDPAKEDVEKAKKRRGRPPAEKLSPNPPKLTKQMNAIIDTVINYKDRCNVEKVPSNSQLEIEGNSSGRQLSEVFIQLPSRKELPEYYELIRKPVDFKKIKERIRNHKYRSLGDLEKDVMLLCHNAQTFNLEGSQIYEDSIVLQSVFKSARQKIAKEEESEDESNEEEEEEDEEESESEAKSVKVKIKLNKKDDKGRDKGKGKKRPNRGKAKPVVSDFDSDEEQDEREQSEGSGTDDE
MEASURED_QUANTITY: DC50

| COMPOUND | DC50 |
| --- | --- |
| Cc1ncsc1-c1ccc([C@H](C)NC(=O)[C@@H]2C[C@@H](O)CN2C(=O)[C@@H](c2cc(N3CCC(C(=O)N4CCc5[nH]c6nnc(-c7ccccc7O)cc6c5[C@H]4C)CC3)no2)C(C)C)cc1 (racemic) [Compound 82] | < 10 nM |
| Cc1ncsc1-c1ccc([C@H](C)NC(=O)[C@@H]2C[C@@H](O)CN2C(=O)[C@@H](c2cc(OCCNC3CC[C@]34C[C@@H](c3cc5cc(-c6ccccc6O)nnc5[nH]3)C4)no2)C(C)C)cc1 (mixture of isomers) [Compound 133] | > 10 nM |
| Cc1ncsc1-c1ccc([C@H](C)NC(=O)[C@@H]2C[C@@H](O)CN2C(=O)[C@@H](c2cc(C3CCN(C(=O)[C@@]4(N)CCc5[nH]c6nnc(-c7ccccc7O)cc6c5C4)CC3)no2)C(C)C)cc1 (relative stereo) [Compound 103] | > 100 nM |

*Q* Which DC50 value belongs to Cc1ncsc1-c1ccc([C@H](C)NC(=O)[C@@H]2C[C@@H](O)CN2C(=O)[C@@H](c2cc(OCCN3CC[C@H](c4c(C)[nH]c5nnc(-c6ccccc6O)cc45)C3)no2)C(C)C)cc1 (single isomer, unassigned) [Compound 241] ?
*A* > 10 nM
